The measurements presented in this section are drawn from patent US20240174681A1.

- test name: Pharmacokinetic test of crystal forms in SD rats, oral
- Format: in vivo
- study conditions: male, rat, plasma, 50 mg/kg, suspension in 0.5% CMC-Na
quantity name: AUC(0-t) (ng·h/mL)
# unit: ng·h/mL | format: bare number

QUERY: Can you look up the measured AUC(0-t) of C=CC(=O)N[C@H]1CCOC[C@H]1Nc1ncc2c(n1)-c1cc(C)cnc1N(c1c(Cl)c(OC)cc(OC)c1Cl)C2 [Phosphate crystal form 1] for me?
RESULT: 6890

* * *

- test name: Stability determination of crystal forms (HPLC)
- Format: physicochemical
- study conditions: day 0
# API Content values compiled below
# unit: % | format: bare number

>>> value_reported("C=CC(=O)N[C@H]1CCOC[C@H]1Nc1ncc2c(n1)-c1cc(C)cnc1N(c1c(Cl)c(OC)cc(OC)c1Cl)C2 [Amorphous form of the compound represented by Formula I]")
98.30
>>> value_reported("C=CC(=O)NC1CCOCC1Nc1ncc2c(n1)-c1cc(C)cnc1N(c1c(Cl)c(OC)cc(OC)c1Cl)C2.O=C(O)C=CC(=O)O (stereo not shown) [Maleate crystal form 2]")
99.63
>>> value_reported("C=CC(=O)N[C@H]1CCOC[C@H]1Nc1ncc2c(n1)-c1cc(C)cnc1N(c1c(Cl)c(OC)cc(OC)c1Cl)C2 [Phosphate crystal form 1]")
99.32

QUERY: Can you look up the measured API Content of C=CC(=O)NC1CCOCC1Nc1ncc2c(n1)-c1cc(C)cnc1N(c1c(Cl)c(OC)cc(OC)c1Cl)C2.O=C(O)C=CC(=O)O (stereo not shown) [Maleate crystal form 1] for me?
RESULT: 99.62
